Quick reference: AC50 of the listed items.
Target: Progesterone receptor (Homo sapiens); further: assay procedure not described here
Sequence (P06401 whole entry): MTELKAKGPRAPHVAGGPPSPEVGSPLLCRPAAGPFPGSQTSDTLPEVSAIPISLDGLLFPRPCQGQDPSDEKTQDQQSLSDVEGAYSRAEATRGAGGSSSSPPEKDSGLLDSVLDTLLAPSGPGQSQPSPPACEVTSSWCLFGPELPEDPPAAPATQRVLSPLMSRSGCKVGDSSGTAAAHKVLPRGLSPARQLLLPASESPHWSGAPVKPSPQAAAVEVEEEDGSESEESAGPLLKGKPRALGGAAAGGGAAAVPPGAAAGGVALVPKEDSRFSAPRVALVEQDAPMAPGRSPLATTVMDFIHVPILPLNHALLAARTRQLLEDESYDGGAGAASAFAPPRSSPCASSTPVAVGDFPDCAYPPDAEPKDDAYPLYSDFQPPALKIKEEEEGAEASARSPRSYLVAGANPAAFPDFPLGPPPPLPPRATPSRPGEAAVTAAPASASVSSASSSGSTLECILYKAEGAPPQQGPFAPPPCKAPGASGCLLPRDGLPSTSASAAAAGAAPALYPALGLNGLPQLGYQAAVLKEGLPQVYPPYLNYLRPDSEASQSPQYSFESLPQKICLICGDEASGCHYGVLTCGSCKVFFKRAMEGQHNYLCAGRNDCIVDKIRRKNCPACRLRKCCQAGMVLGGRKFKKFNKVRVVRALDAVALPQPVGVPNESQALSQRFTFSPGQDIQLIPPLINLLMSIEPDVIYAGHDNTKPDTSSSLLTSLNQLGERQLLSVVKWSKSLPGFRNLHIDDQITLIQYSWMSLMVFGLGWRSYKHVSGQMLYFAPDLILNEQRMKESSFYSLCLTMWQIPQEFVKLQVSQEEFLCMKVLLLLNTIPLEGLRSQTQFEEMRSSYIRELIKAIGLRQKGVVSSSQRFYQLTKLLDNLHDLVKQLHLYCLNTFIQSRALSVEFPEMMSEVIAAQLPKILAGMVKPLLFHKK
Format: functional

Worked set:
- compound: "CCN(CC)C(=O)N[C@H]1C[C@@H]2c3cccc4[nH]cc(c34)C[C@H]2N(C)C1 [TERGURIDE]"
  test target: "Progesterone receptor (Homo sapiens)"
  property: "AC50"
  assay value: "> 30 µM"
- compound: "CN1C(=O)OC(C)(C)C1=O [TRIMETHADIONE]"
  test target: "Progesterone receptor (Homo sapiens)"
  property: "AC50"
  assay value: "> 10 µM"
- compound: "COC(=O)[C@H]1[C@H]2C[C@@H]3c4[nH]c5cc(OC)ccc5c4CCN3C[C@H]2C[C@@H](OC(=O)/C=C/c2cc(OC)c(OC)c(OC)c2)[C@@H]1OC [RESCINNAMINE]"
  test target: "Progesterone receptor (Homo sapiens)"
  property: "AC50"
  assay value: "> 10 µM"
- compound: "COc1ccc2c3c1O[C@H]1C(=O)CC[C@@]4(O)[C@@H](C2)N(C)CC[C@]314 [OXYCODONE]"
  test target: "Progesterone receptor (Homo sapiens)"
  property: "AC50"
  assay value: "> 30 µM"
- compound: "CCCSc1ccc2nc(NC(=O)OC)[nH]c2c1 [ALBENDAZOLE]"
  test target: "Progesterone receptor (Homo sapiens)"
  property: "AC50"
  assay value: "> 10 µM"

Exercise: Endpoint output: AC50 of CC(C)=CCC/C(C)=C/C=C/C(C)=C/C=C/C(C)=C/C=C/C=C(C)/C=C/C=C(C)/C=C/C=C(\C)CCC=C(C)C [LYCOPENE] . Value?
Solution: > 30 µM

Exercise: Endpoint output: AC50 of COc1ccccc1OCC(O)CN1CCN(CC(=O)Nc2c(C)cccc2C)CC1 (stereo unspecified) [RANOLAZINE] . Value?
Solution: > 30 µM

Exercise: Endpoint output: AC50 of Cc1ccc(-n2nccn2)c(C(=O)N2CCN(c3nc4cc(Cl)ccc4o3)CC[C@H]2C)c1 [SUVOREXANT] . Value?
Solution: > 30 µM

Exercise: Endpoint output: AC50 of O=C(O)C1=C(CSc2nnnn2CS(=O)(=O)O)CS[C@@H]2[C@H](NC(=O)[C@H](O)c3ccccc3)C(=O)N12 [CEFONICID] . Value?
Solution: > 30 µM
